- assay remarks: protein stability index of a GFP-peptide fusion (GPS, HEK-293T) (PSI 1-6); higher = more stable;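 note: 24-mer peptide tiles fused after GFP, lentivirally expressed, FACS-sorted into six equal bins by GFP/DsRed ratio, decoded by Illumina sequencing, PSI is the read-weighted mean bin number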
- measurement conditions: treatment: MLN4924 1 uM, 8 h; c terminus: a fixed tail appended
Label Fulfilled when protein stability index is at or above 4; otherwise label Not fulfilled.

TGGLGGERERQPCGDGNTETHRAP [SOAT2]    Fulfilled
FFPMGDEGASSQIGRAAGTGFTVN [HDAC6]    Not fulfilled
TDLPECEQSSARQKASLLIQQALT [TCF25]    Not fulfilled
CPAELRPQVPQPPSPAAVPRPPSN [TRAF3IP2]    Fulfilled
ALVQEKIQKRNQRQSGDRRQLPPP [WAS]    Fulfilled

Switching to the query record.
Does the sequence ESSQKYKEGKYIIELNHMIKDNGW [YPEL3] have recorded protein stability index that is 4 or more?
Not fulfilled

###

Field: protein stability index. Provide a value for each of the sequences that follow.
- assay remarks: protein stability index of a GFP-peptide fusion (GPS, HEK-293T) (PSI 1-6); higher = more stable
- measurement conditions: treatment: MLN4924 1 uM, 8 h; c terminus: a fixed tail appended
Give bare numbers.

As a guide, the following entries are already answered.
GASSPAAYDEALAELHAHGPAAFV [ZSWIM9]    3.99
DVSLPRGAFPPRGPRPVQSVVPEM [CDK4]    3.94
PCAGLNCQALDANLDANLAFASFT [TLE6]    2.99
DFQPREEAMLYHNQTAELRELLEF [P3H4]    4.01
MENLPGLASGPGKYMPHLCQDSSG    3.93
HKVAPLVQSLCAKHGIEYQSKPLL [FADS1]    3
EAKAVGLISHVLEQNQEGDAAYRK [AUH]    5.18
ELAPDFVGDILWEHLEILQKEDVK [ETS1]    4.17

I have this sequence here, FANGHTYHINSISVNSDCETYMSA [PPP2R2C] , and I need its recorded protein stability index.
2.63

###

Field: protein stability index. Provide a value for each of the sequences that follow.
- assay remarks: protein stability index of a GFP-peptide fusion (GPS, HEK-293T) (PSI 1-6); higher = more stable
- measurement conditions: treatment: DMSO; c terminus: a fixed tail appended
Answers are plain numbers.

As a guide, the following entries are already answered.
RKSLFDDKAVEIEELTYIIKQDIN [STX5]    2.9
HLSSQQASGQSYSSREVFTSSSSS [KRT16]    4.63
PSNRSFFSEIISSISDVKFSHSGR [PPP2R2B]    2.73

I have this sequence here, LISHVLEQNQEGDAAYRKALDLAR [AUH] , and I need its recorded protein stability index.
3.38

###

- assay remarks: protein stability index of a GFP-peptide fusion (GPS, HEK-293T) (PSI 1-6); higher = more stable
- measurement conditions: treatment: MLN4924 1 uM, 8 h; c terminus: a fixed tail appended
Label fulfilled when protein stability index is at or above 5; otherwise label not fulfilled.

Observe how each entry below is paired with its result.
AQPQGAPCCSSSPEEPLNGESYES [FEM1A]    fulfilled
RPAFVRVRRGHSHLAPSEAKAADS    not fulfilled

Does the sequence EDSAQNCFALIPKAPKKDVIKMLV [EFHC1] have recorded protein stability index that is 5 or more?
not fulfilled

Does the sequence LLEEGGLVQVESVNLQVATYSKFQ [UFD1] have recorded protein stability index that is 5 or more?
not fulfilled

Does the sequence KGCKVTLPEKPVKLASHTRDTTGV [FBF1] have recorded protein stability index that is 5 or more?
not fulfilled

Does the sequence NNQSDLEKEMQKMNPYKIDIGAVY [PRIM1] have recorded protein stability index that is 5 or more?
not fulfilled

Does the sequence LDPDSKENAQIIYSLAEDTIQGVP [PCDHGA10] have recorded protein stability index that is 5 or more?
not fulfilled

Does the sequence LFVTFLLIYMVTIMGNLLIIVTIM [OR4A15] have recorded protein stability index that is 5 or more?
not fulfilled

Does the sequence DIISTVEFNHTGELLATGDKGGRV [PPP2R2B] have recorded protein stability index that is 5 or more?
not fulfilled

Does the sequence STYRPLPDPSVWSRRYTEMALPFF [MYORG] have recorded protein stability index that is 5 or more?
not fulfilled

Does the sequence FYQSPYDSEQVPQALRRLRPRTRK [NCF4] have recorded protein stability index that is 5 or more?
not fulfilled
